# PROTOCOL_DETAILS: NCI Yeast Anticancer Drug Screen. Data for the rad50 strain (AID 155);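 also: 0% = growth of vehicle-only cultures of the same strain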
# RUN_CONDITIONS: S. cerevisiae rad50 strain growth inhibition; at 50.0 µM; active compounds read high
# Experimental: Growth inhibition of yeast strains with defined genetic alterations is measured as a screen for potential anti-cancer activity. Selected strains with alterations in DNA damage repair or cell cycle control were exposed to compounds and growth inhibition was measured relative to vehicle treated controls. The strain used in this assay is rad50
This is part of a sample that, as a whole, favours compounds with a hit. Of some 79,000 tested, about 15% had one in any assay.
Below, each entry is listed alongside its reported growth inhibition.
TEST_READOUT: growth inhibition (%)

COMPOUND	TEST_READOUT	NUMERIC_READOUT
CCCCCCCC(=O)NN	growth inhibition	-20.9
CC(C)Cc1ccc(NC2=C(Cl)C(=O)c3ccccc3C2=O)cc1	growth inhibition	19.3
N#CC(C(=O)CCC(=O)Nc1ccc(Cl)c(Cl)c1)c1ccc(Cl)cc1 (configuration not stated)	growth inhibition	-12.9
N=c1ncn(C/C=C/c2ccccc2)c2nc[nH]c12	growth inhibition	-12.7
CCC(=C(c1ccc(OCc2ccccc2)cc1)c1ccc(OCc2ccccc2)cc1)c1ccc(OC)cc1	growth inhibition	14.7
Cc1ccccc1NC(=O)CC(=O)NNC(Sc1ccccc1)c1cc(N=Nc2ccc(Br)cc2)ccc1O (configuration not stated)	growth inhibition	19.3
NC[C@H]1Nc2ccccc2[C@@H](O)C1O (some centres not stated)	growth inhibition	14.6
O=c1c2cc3c(cc2[nH]c2ncccc12)OCO3	growth inhibition	-12.8
COC1(OC)N=C(N)C2(C#N)C(C)CC(=O)N(N(C)C)C12C#N (configuration not stated)	growth inhibition	7.15
NC(N)=N/N=C1/C(=O)N(C2CCCCCC2)C(=O)C1C(=O)NC1CCCCCC1 (configuration not stated)	growth inhibition	35.8
CC(C)c1ccc([N+](=O)[O-])cc1	growth inhibition	31.5
CCCCN1CSC(=S)N(CCCC)C1	growth inhibition	39.5
